All values here come from paper PMC11995724.

protocolText: in vitro
condition: human, hek293t cells
viability at 48 h, 25 µM reference
measuredParameter: viability at 48 h, 25 µM (%)

>>> quantitativeresult("O=C(CCl)Nc1nc(-c2ccccc2)cs1 [4-L04]")
-0.0639
>>> quantitativeresult("CC(Cl)C(=O)NCC1c2ccccc2C(=O)N1Cc1ccccc1 (centres unmarked) [6-H20]")
107
>>> quantitativeresult("Cc1ccc(C=C(C#N)C(=O)N2CCCC2)cc1 [8-E17]")
75.4
>>> quantitativeresult("C=CC(=O)N1CCC(C(=O)NCC(O)c2cccc(Cl)c2)CC1 (centres unmarked) [3-M06]")
98.1
>>> quantitativeresult("CCC(C)c1ccccc1NC(=O)CCl (centres unmarked) [6-K11]")
0.743
>>> quantitativeresult("C=CC(=O)N1CCC(C(=O)N2CCn3ccnc32)CC1 [2-I04]")
99.3
>>> quantitativeresult("CCCn1c(C)cc(C=C(C#N)C(=O)N2CCC2)c1C [8-L08]")
77.4
>>> quantitativeresult("C=CC(=O)Nc1ccc(C(=O)N[C@@H]2CCN(C(C)=O)C2)cc1 [2-F20]")
73.4
>>> quantitativeresult("C=CC(=O)NCc1cc(Cl)c2c(c1)OCO2 [2-F15]")
50.9
>>> quantitativeresult("O=C(CCl)NCC1(c2ccccc2)CC1 [5-E15]")
3.61
>>> quantitativeresult("C=CC(=O)NCC(=O)N1CCCO1 [1-H05]")
98.5

* * *

protocolText: in vitro
condition: human, hek293t cells
Please note: viability at 48 h, 25 µM exactly at 90% is FALSE. Only values below 90% get TRUE.

>>> labelclass("CCOc1cc(C=C(C#N)C(=O)Nc2cccc(C)c2)ccc1O [9-G06]")
"FALSE"
>>> labelclass("C=CCNC(=O)C(C#N)=Cc1ccccc1[N+](=O)[O-] [8-E09]")
"FALSE"
>>> labelclass("N#CC(=Cc1ccc(-c2ccccc2Cl)o1)C(=O)N1CCCCC1 [8-F20]")
"TRUE"
>>> labelclass("CNC(=O)c1cc(OC2CCCN(C(=O)CCl)C2)ccn1 (centres unmarked) [5-P05]")
"TRUE"
>>> labelclass("N#CC(=Cc1ccc(SC(F)(F)F)cc1)C(=O)NC1CC1 [9-C14]")
"TRUE"
>>> labelclass("C=CC(=O)N(Cc1cc(C)c2ncccc2c1)C(C)C1CCCO1 (centres unmarked) [1-P15]")
"FALSE"
>>> labelclass("Cc1cc(C(=O)C(C)Cl)c(C)n1-c1ccc(OC(F)F)cc1 (centres unmarked) [10-E10]")
"TRUE"
>>> labelclass("C=CC(=O)N1CC(OCc2nc(C)no2)C1 [1-P18]")
"TRUE"
>>> labelclass("Cc1cccc(C=C(C#N)C(=O)NC(C)c2ccccc2)c1 (centres unmarked) [8-F18]")
"TRUE"
>>> labelclass("C=CC(=O)NCc1nc2c(s1)CCCC2 [1-G18]")
"FALSE"
>>> labelclass("O=C(CCl)NCc1ccc(Cl)c(C(F)(F)F)c1 [7-D22]")
"TRUE"
>>> labelclass("C=CCNC(=O)C(C#N)=Cc1ccccc1OC [9-H05]")
"FALSE"
>>> labelclass("O=C(CCl)NC1CCCN(Cc2ccccc2)C1=O (centres unmarked) [7-J10]")
"TRUE"
>>> labelclass("C=CC(=O)NCc1noc(-c2cccs2)n1 [3-H15]")
"FALSE"
>>> labelclass("C[C@@H](NC(=O)CCl)c1ccccc1 [6-O20, 2-chloro-N-[(1R)-1-phenylethyl]acetamide]")
"FALSE"
>>> labelclass("CC(Cl)C(=O)N1Cc2cccn2[C@@H](C)C1 (some centres unmarked) [7-N22]")
"TRUE"
>>> labelclass("C=CC(=O)N1CCC(C(=O)NCC2([S+](C)[O-])CCC2)CC1 (centres unmarked) [2-D18]")
"TRUE"
>>> labelclass("C=CC(=O)N1CCC(Cc2nc3ccc(F)cc3o2)CC1 [3-O07]")
"TRUE"
>>> labelclass("O=C1C=CC(=O)N1c1ccc(F)c(Cl)c1 [10-D15]")
"TRUE"
>>> labelclass("CCNC(=O)C(C#N)=Cc1ccc(O)c(OCC)c1 [8-O09]")
"FALSE"
>>> labelclass("CC(Cl)C(=O)N1CCCC1c1nc(-c2ccccc2)c(C(C)C)o1 (centres unmarked) [7-H11]")
"TRUE"
>>> labelclass("C=CC(=O)NCc1ncnn1-c1ccccc1 [3-H11]")
"TRUE"
>>> labelclass("O=C(CCl)NCc1ccccc1CN1CCOCC1 [5-L06]")
"TRUE"
>>> labelclass("CC1CCCCC1OCCNC(=O)CCl (centres unmarked) [6-O06]")
"FALSE"
>>> labelclass("O=S(=O)(CC=C(Cl)Cl)N1CCSSCC1 [10-P19]")
"FALSE"
>>> labelclass("Cc1c(Cl)cccc1NC(=O)CNC(=O)CCl [5-N20]")
"TRUE"
>>> labelclass("CC(NC(=O)C(C#N)=Cc1ccco1)c1cccnc1 (centres unmarked) [9-K03]")
"FALSE"
>>> labelclass("Cc1cnc(-c2cccc(NC(=O)C(C#N)=Cc3ccco3)c2)o1 [9-M18]")
"FALSE"
>>> labelclass("N#CC(C(=O)CCl)=C1NC2=C(CCc3ccccc32)S1 [10-N10]")
"TRUE"
>>> labelclass("C=CC(=O)N1CCC(C(=O)NCC(O)c2c(F)cccc2F)CC1 (centres unmarked) [2-P14]")
"FALSE"
>>> labelclass("C=CC(NC(=O)CCl)C1CCOCC1 (centres unmarked) [5-N13]")
"FALSE"
>>> labelclass("C=CC(=O)Nc1nc2cc(C(F)(F)F)ccc2n1Cc1ccco1 [1-G11]")
"TRUE"
>>> labelclass("N#CC(=Cc1ccccc1Cl)C(=O)Nc1ccc(Cl)cc1 [8-B11]")
"FALSE"
>>> labelclass("C=CC(=O)NCc1cn(-c2ccccc2)nn1 [2-I13]")
"TRUE"
>>> labelclass("Cc1oc(C(N)=O)cc1C(=O)CCl [10-M05]")
"TRUE"
>>> labelclass("C=CC(=O)N1CCCCC1 [1-C12, 1-(piperidin-1-yl)prop-2-en-1-one]")
"FALSE"
>>> labelclass("CNC(=O)Cn1ccc2ccc(NC(=O)C(C#N)=Cc3ccco3)cc21 [9-F18]")
"FALSE"
>>> labelclass("C=CC(=O)Nc1onc(C2CCCCC2)c1CC(C)C [1-P12]")
"TRUE"
>>> labelclass("C=CC(=O)N[C@H]1CCO[C@@H]1c1ccnn1C [2-K19]")
"FALSE"
>>> labelclass("Cc1c(NC(=O)CCl)c(=O)n(-c2ccccc2)n1C [5-G17]")
"TRUE"
>>> labelclass("C=CC(=O)N1CCC(C(=O)OCC)(S(C)(=O)=O)CC1 [3-H04]")
"FALSE"
>>> labelclass("COc1cc2c(cc1NC(=O)C(C)Cl)oc1ccccc12 (centres unmarked) [6-G09]")
"FALSE"
